Target: UniProt P42226
Sequence (P42226 whole entry): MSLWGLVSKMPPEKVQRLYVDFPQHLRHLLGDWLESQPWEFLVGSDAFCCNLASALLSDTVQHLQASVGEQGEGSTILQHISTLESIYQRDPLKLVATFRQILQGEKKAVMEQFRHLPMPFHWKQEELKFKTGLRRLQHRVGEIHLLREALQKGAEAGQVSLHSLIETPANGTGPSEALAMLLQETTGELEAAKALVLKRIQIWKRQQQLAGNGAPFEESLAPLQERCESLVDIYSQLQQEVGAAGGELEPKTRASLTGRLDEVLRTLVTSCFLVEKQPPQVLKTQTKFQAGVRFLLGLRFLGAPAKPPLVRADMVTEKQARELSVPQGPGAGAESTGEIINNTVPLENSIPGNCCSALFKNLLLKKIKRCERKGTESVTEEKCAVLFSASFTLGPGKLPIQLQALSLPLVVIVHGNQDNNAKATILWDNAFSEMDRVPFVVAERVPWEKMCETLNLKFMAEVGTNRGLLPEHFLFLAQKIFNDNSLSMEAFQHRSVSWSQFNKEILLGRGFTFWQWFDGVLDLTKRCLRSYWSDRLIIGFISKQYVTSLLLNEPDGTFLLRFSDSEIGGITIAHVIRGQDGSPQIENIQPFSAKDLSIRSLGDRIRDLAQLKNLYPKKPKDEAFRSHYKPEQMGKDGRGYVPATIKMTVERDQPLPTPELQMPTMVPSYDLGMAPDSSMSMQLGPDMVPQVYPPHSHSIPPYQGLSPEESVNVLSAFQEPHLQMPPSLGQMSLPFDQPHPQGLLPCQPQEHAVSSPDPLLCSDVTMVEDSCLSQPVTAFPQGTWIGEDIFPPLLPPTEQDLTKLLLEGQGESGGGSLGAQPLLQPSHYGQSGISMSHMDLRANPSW
Experiment: STAT6 degrader assay (HiBiT, HeLa LgBiT clone 4.14)
Type: cell-based
Details: HeLa LgBiT clone 4.14, 4-24 h; geometric mean; given for compounds with >80% Emax; read-out: STAT6 degradation DC50
Each record here notes measured log10(DC50).
readout.label: log10(DC50) (log10 of the value in nM)

>>> result_value("C[C@@H](c1cc2c(-c3ccc(N)nc3)ccnc2n1C)N1CCC(c2ccc(C(=O)N3CCC(CN4CCN(Cc5cc6c(cc5F)n(C5CCC(=O)NC5=O)c(=O)n6C)CC4)CC3)cc2)CC1 (stereo partly drawn) [Example 3e33]")
0.26
>>> result_value("C[C@H]1CN(Cc2cc3c(cc2F)n([C@@H]2CCC(=O)NC2=O)c(=O)n3C2CC2)CCN1CC1CCN(C(=O)c2ccc(C3CCN([C@@H](C)c4cc5c(-c6ccc(N)nc6)ccnc5n4C)CC3)cc2)CC1 (single isomer, unassigned) [Example 3e61]")
0.15
>>> result_value("C[C@@H](c1cc2c(-c3ccc(N)nc3)ccnc2n1C)N1CCC(c2ccc(C(=O)N3CCC(CN4CCN(Cc5cc6c(cc5Cl)n(C5CCC(=O)NC5=O)c(=O)n6C)CC4)CC3)cc2)CC1 (stereo partly drawn) [Example 3e30]")
0.86
>>> result_value("C[C@H]1CN(Cc2ccc3c(c2)n(C)c(=O)n3C2CCC(=O)NC2=O)CCN1CC1CCN(C(=O)c2ccc(C3CCN([C@@H](C)c4cc5c(-c6ccc(NCCO)nc6)ccnc5n4C)CC3)cc2)CC1 (stereo partly drawn) [Example 3e40]")
-0.30
>>> result_value("Cn1c(CN2CCC(c3ccc(C(=O)N4CCC(CN5CCN(Cc6ccc7c(c6)n(C)c(=O)n7C6CCC(=O)NC6=O)CC5)CC4)cc3)CC2)cc2c(-c3ccc(N)nc3)ccnc21 (stereo not drawn) [Example 3e2]")
0.66
>>> result_value("C[C@H]1CN(Cc2ccc3c(c2)n(C2CC2)c(=O)n3[C@@H]2CCC(=O)NC2=O)CCN1CC1CCN(C(=O)c2ccc(C3CCN([C@@H](C)c4cc5c(-c6ccc(N)nc6)ccnc5n4C)CC3)cc2)CC1 (single isomer, unassigned) [Example 3e51]")
-0.10
>>> result_value("CNc1ccc(-c2ccnc3c2cc([C@H](C)N2CCC(c4ccc(C(=O)N5CCC(CN6CCN(Cc7cc8c(cc7F)n([C@@H]7CCC(=O)NC7=O)c(=O)n8C)C[C@@H]6C)CC5)cc4)CC2)n3C)cn1 [Example 3h22]")
-0.05
>>> result_value("CNc1ccc(-c2ccnc3c2cc([C@H](C)N2CCC(c4ccc(C(=O)N5CCC(CN6CCN(Cc7cc8c(cc7F)n(C7CCC(=O)NC7=O)c(=O)n8C)C[C@@H]6C)CC5)cc4)CC2)n3C)cn1 (stereo partly drawn) [Example 3h21]")
0.00
>>> result_value("C[C@@H](c1cc2c(-c3ccc(N)nc3)ccnc2n1C)N1CCC(c2ccc(C(=O)N3CCC(CN4CCN(Cc5ccc6c(c5)n(C)c(=O)n6C5CCC(=O)NC5=O)C[C@H]4C(F)(F)F)CC3)cc2)CC1 (stereo partly drawn) [Example 3e43]")
0.45
>>> result_value("C[C@H]1CN(Cc2ccc3c(c2)n(C)c(=O)n3[C@H]2CCC(=O)NC2=O)CCN1CC1CCN(C(=O)c2ccc(C3CCN(Cc4cc5c(-c6ccc(N)nc6)ccnc5n4C)CC3)cc2)CC1 (single isomer, unassigned) [Example 3e19]")
-0.15
>>> result_value("C[C@@H]1CN(Cc2ccc3c(c2)n(C)c(=O)n3C2CCC(=O)NC2=O)C[C@H](C)N1CC1CCN(C(=O)c2ccc(C3CCN([C@@H](C)c4cc5c(-c6ccc(N)nc6)ccnc5n4C)CC3)cc2)CC1 (stereo partly drawn) [Example 3e18]")
0.15
>>> result_value("Cn1c(CN2CCC(c3ccc(C(=O)N4CCC(CCn5cc(-c6cccc7c6n(C)c(=O)n7C6CCC(=O)NC6=O)cn5)CC4)cc3)CC2)cc2c(-c3ccc4[nH]ncc4c3)ccnc21 (stereo not drawn) [Example 3l2]")
0.48
>>> result_value("C[C@H]1CN(Cc2ccc3c(c2)n(C)c(=O)n3C2CCC(=O)NC2=O)CCN1CC1CCN(C(=O)c2ccc(C3CCN([C@@H](C)c4cc5c(-c6ccc7[nH]c(=O)n(C)c7c6)ccnc5n4C)CC3)cc2)CC1 (stereo partly drawn) [Example 3e37]")
-0.70
>>> result_value("CNc1ccc(-c2ccnc3c2cc([C@H](C)N2CC=C(c4c(C)cc(C(=O)N5CCC(CN6CCN(Cc7ccc8c(c7)C7(CCC7)C(=O)N8C7CCC(=O)NC7=O)C[C@@H]6C)CC5)cc4F)CC2)n3C)cn1 (stereo partly drawn) [Example 3h47]")
0.85
>>> result_value("C[C@H]1CN(Cc2ccc3c(c2)n(C)c(=O)n3C2CCC(=O)NC2=O)CCN1CC1CCN(C(=O)c2ccc(C3CCN([C@@H](C)c4cc5c(-c6ccc(N)cn6)ccnc5n4C)CC3)cc2)CC1 (stereo partly drawn) [Example 3e56]")
-0.40
>>> result_value("CNc1ccc(-c2ccnc3c2cc([C@H](C)N2CC=C(c4c(C)cc(C(=O)N5CCC(CN6CCN(Cc7cc8c(cc7F)N(C7CCC(=O)NC7=O)C(=O)C8(C)C)C[C@@H]6C)CC5)cc4F)CC2)n3C)cn1 (stereo partly drawn) [Example 3h33]")
1.56
>>> result_value("CNc1ccc(-c2ccnc3c2cc([C@H](C)N2CC=C(c4c(C)cc(C(=O)N(C)c5ccc(C6CCN(Cc7ccc8c(c7)C7(CC7)C(=O)N8C7CCC(=O)NC7=O)CC6)cc5)cc4F)CC2)n3C)cn1 (stereo partly drawn) [Example 3h11]")
-0.52
>>> result_value("C[C@@H](c1cc2c(-c3ccc4[nH]ncc4c3)ccnc2n1C)N1CCC(c2ccc(C(=O)N3CCC(CN4CCN(Cc5ccc6c(c5)n(C5CC5)c(=O)n6C5CCC(=O)NC5=O)CC4)CC3)cc2)CC1 (stereo partly drawn) [Example 3e11]")
-0.05

Each recorded value in this set is attributed to patent US20250325677A1.
